- studyTarget: AmelOBP2 (Apis mellifera)
endpointName: pKi
// pKi here means minus log10 of the molar concentration (mol/L)

# compound, endpointName, measuredResult
data = [
    ("CCC/C=C/C=O [e-2-hexenal]", "pKi", 5.55),
    ("C=CC(=C)CCCC(=C)C [alpha-myrcene]", "pKi", 5.56),
    ("Cc1cccc(C)c1 [1,3-dimethyl-benzene]", "pKi", 4.96),
]

Consider the compound shown here: CC(=O)/C=C/C1=C(C)CCCC1(C)C [trans-β-ionone] What is its recorded pKi?
5.38

Now the same for CC1=CC(=O)C(C(C)C)CC1 (stereo not drawn)
4.95

Now the same for CCCCCCCCCCCCCCCC [hexadecane]
4.51

Now the same for C=C1CC/C=C(\C)CC[C@@H]2[C@@H]1CC2(C)C [β-caryophyllene]
5.32

---

Data export: IC50 values recorded with AmelOBP2 (Apis mellifera).
Give the number; µM is assumed, so skip it.

# compound, measuredResult
data = [
    ("C=CC(=C)CCCC(=C)C", 6.18),
    ("CCCCCCCCCCCCCC", 18),
    ("CCCCC/C=C/C=O", 16.7),
    ("CCC/C=C/C=O", 6.33),
    ("CC1=CC(=O)C(C(C)C)CC1 (stereo not drawn)", 25),
    ("CCCCCCCCCCCCCCCC(=O)OCC", 28.8),
    ("C=C1CC/C=C(\\C)CC[C@@H]2[C@@H]1CC2(C)C", 10.8),
    ("CCCCCCCCC=O", 11.8),
    ("Cc1cccc(C)c1", 24.6),
    ("Cc1ccc(C(C)C)cc1", 8.02),
]

Requested read-out IC50, target or system AmelOBP2 (Apis mellifera), entry C=CC(C)(O)CCC=C(C)C (stereo not drawn)
15.7

Now the same for CCCCCCCCCCCCCCCCCCCCCCCC
29.6

---

The reader will find reported pKi values listed item by item below.
- studyTarget: AmelOBP2 (Apis mellifera, UniProt A0A8U0WQ64)
- Sequence (A0A8U0WQ64 entry or part of it): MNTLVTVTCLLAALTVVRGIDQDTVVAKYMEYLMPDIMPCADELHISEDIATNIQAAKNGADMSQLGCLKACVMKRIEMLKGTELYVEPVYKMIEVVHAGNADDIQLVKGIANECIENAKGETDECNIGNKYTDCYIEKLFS
// pKi here means minus log10 of the molar concentration (mol/L)

Before answering, review these 2 worked examples.
# compound, studyTarget, pKi
records = [
    ("CC=Cc1ccc(OC)c(OC)c1", "AmelOBP2 (Apis mellifera, UniProt A0A8U0WQ64)", 5.11),
    ("CCCCCCCCC=O", "AmelOBP2 (Apis mellifera, UniProt A0A8U0WQ64)", 5.28),
]

Consider the compound shown here: O=CCCc1ccccc1 What is its recorded pKi?
5.14

Now the same for O=Cc1ccccc1
5.43

Now the same for CC(C)C(=O)OCC(C)(C)C(OC(=O)C(C)C)C(C)C (centres unmarked)
5.31
